Target: Polyketide synthase Pks13 (Mycobacterium tuberculosis (strain ATCC 25618 / H37Rv)) (UniProt I6X8D2)
Sequence (I6X8D2 whole entry): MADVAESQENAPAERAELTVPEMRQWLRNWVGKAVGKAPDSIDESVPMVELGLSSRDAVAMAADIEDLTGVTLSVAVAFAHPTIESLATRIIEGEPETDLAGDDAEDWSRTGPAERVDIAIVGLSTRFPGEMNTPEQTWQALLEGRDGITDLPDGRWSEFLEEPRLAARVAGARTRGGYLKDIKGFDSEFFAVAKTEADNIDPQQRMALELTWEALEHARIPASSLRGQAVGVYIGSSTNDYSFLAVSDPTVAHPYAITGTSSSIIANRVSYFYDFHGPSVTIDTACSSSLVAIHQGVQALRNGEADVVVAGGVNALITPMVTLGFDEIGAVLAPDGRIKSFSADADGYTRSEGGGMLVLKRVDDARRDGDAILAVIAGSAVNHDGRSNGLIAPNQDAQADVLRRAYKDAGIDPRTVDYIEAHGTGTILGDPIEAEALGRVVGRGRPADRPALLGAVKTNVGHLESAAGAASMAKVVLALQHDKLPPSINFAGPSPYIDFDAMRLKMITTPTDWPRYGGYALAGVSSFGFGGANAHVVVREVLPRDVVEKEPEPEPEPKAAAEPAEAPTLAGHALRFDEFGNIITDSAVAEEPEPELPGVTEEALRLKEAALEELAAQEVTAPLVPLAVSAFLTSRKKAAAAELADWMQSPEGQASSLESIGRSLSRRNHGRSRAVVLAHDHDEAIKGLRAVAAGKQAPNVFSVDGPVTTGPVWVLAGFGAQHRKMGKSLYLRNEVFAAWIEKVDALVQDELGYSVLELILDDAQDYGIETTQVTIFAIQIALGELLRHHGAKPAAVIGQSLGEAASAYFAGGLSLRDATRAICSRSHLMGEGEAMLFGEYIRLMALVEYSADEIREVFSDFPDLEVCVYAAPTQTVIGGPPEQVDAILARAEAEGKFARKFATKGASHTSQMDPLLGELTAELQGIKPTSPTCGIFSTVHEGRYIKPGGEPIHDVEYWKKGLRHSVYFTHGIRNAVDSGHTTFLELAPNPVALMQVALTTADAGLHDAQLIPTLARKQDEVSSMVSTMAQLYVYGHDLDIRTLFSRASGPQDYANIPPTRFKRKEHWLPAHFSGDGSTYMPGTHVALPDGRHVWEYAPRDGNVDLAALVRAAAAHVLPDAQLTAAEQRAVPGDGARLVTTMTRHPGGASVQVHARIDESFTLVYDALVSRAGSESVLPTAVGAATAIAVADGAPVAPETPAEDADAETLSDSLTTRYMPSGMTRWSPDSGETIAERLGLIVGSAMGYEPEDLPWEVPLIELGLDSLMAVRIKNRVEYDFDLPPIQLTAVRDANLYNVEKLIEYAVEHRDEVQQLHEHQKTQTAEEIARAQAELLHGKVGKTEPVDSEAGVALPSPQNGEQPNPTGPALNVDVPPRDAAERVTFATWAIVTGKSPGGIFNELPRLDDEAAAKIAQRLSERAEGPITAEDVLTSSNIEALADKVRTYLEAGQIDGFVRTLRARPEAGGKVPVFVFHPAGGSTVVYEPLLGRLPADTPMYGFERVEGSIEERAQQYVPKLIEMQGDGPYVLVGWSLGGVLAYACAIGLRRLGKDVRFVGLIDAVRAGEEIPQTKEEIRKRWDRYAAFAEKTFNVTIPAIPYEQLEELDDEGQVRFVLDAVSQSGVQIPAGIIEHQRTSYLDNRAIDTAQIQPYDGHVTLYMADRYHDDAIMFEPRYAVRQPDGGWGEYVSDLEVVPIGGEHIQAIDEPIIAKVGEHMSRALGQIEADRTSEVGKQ
Assay: Mycobacterium tuberculosis Polyketide synthase 13 Thioesterase (PKS13)
Type: functional
Set-up: scale not given: in the data most compounds retested in dose-response had high values
Conditions: 30 µM
In all, about 67,000 compounds went through this assay and about 300 (0.45%) showed an effect of 50% or more. The list comes from a sample in which strong results are over-represented; it also holds close analogues and randomly drawn compounds.
We begin with a simple list: items and their reported Percent Effect.
assay.metric: Percent Effect (%)

1) Cc1cc(CNC(=O)c2ccno2)c(C)o1 ... -13.1
2) CC1(c2[nH]ncc2C(N)=O)CCN(c2ncccn2)CC1 ... -9.79
3) Cc1cccc(CN2CC[C@H]3OCC[C@@]3(C(=O)N3CCCO3)C2)n1 ... 8.33
4) COc1cc(N2C[C@@H]3COC[C@]3(COCc3ccncc3)C2)ncn1 ... -5.91
5) O=C(C[C@@H]1COC[C@H]2CN(C(=O)c3cccnc3)C[C@@H]12)N1CCOCC1 ... -5.25
6) CN(C)C(=O)c1cn[nH]c1C1(C)CCCN(Cc2ccccn2)C1 (stereo unspecified) ... -25
